target or test system: UniProt:P08172
condition details: Receptor activity EC50, M2-GIRK1/4 activation test, acetylcholine at EC20; allosteric potency; in some cases mean values from two or more determinations
Response field label: string, one of condition met (EC50 strictly below 100 nM) or condition not met.

I'd appreciate it if you could check whether CC(NC(=O)c1cn(-c2ccc(F)cc2F)c2nc(N(C)CCF)ccc2c1=O)C(F)(F)F (racemic) has EC50 smaller than 100 nM. condition not met

I'd appreciate it if you could check whether O=C(N[C@H](C1CC1)C(F)(F)F)c1cn(-c2c(F)cccc2F)c2nc(N3CC4CC4(O)C3)ccc2c1=O (mixture of isomers) has EC50 smaller than 100 nM. condition met

I'd appreciate it if you could check whether `CN(C)c1ccc2c(=O)c(C(=O)NC34CC5CC(CC(C5)C3)C4)cn(-c3ccc(F)cc3F)c2n1` has EC50 smaller than 100 nM. condition met

I'd appreciate it if you could check whether `C[C@H](NC(=O)c1cn(-c2ccc(F)cc2F)c2nc(N(C)C)ccc2c1=O)C(F)(F)F` has EC50 smaller than 100 nM. condition not met

I'd appreciate it if you could check whether `O=C(NC1(C(F)(F)F)CC1)c1cn(-c2ccc(F)cc2F)c2nc(N3CC[C@H](F)C3)ccc2c1=O` has EC50 smaller than 100 nM. condition met

I'd appreciate it if you could check whether CC(C)CC(NC(=O)c1cn(-c2ccc(F)cc2F)c2nc(N3CCS(=O)(=O)C3)ccc2c1=O)C(F)(F)F (centres unmarked) has EC50 smaller than 100 nM. condition met

I'd appreciate it if you could check whether `CC[C@H](NC(=O)c1cn(-c2c(F)cc(F)cc2Cl)c2nc(N3C[C@@](C)(O)C[C@H]3C)ccc2c1=O)C(F)(F)F` has EC50 smaller than 100 nM. condition met

I'd appreciate it if you could check whether `CC(C)(C)[C@@H](NC(=O)c1cn(-c2c(F)cc(F)cc2F)c2nc(N3CCN(CCO)C3=O)ccc2c1=O)C(F)(F)F` has EC50 smaller than 100 nM. condition met

I'd appreciate it if you could check whether CCC(NC(=O)c1cn(-c2ccc(F)cc2F)c2nc(N3CC(CO)C3)ccc2c1=O)C(F)(F)F (racemic) has EC50 smaller than 100 nM. condition not met

I'd appreciate it if you could check whether `O=C(NC12CC3CC(F)(CC(F)(C3)C1)C2)c1cn(-c2ccc(F)cc2F)c2nc(NCC(F)(F)F)ccc2c1=O` has EC50 smaller than 100 nM. condition not met

I'd appreciate it if you could check whether `CC[C@@H](NC(=O)c1cn(-c2ccc(F)cc2F)c2nc(N3CC(C)(OC)C3)ccc2c1=O)C(F)(F)F` has EC50 smaller than 100 nM. condition met

I'd appreciate it if you could check whether CCC(NC(=O)c1cn(-c2ccc(F)cc2F)c2nc(N3C[C@@H](O)CC3=O)ccc2c1=O)C(F)(F)F (some centres unmarked) has EC50 smaller than 100 nM. condition met

I'd appreciate it if you could check whether O=C(NC(c1ccc(F)cc1)C(F)(F)F)c1cn(-c2ccc(F)cc2F)c2nc(N3C[C@@H](O)CC3=O)ccc2c1=O (mixture of isomers) has EC50 smaller than 100 nM. condition met

====

target or test system: human M2 receptor (Homo sapiens, UniProt P08172)
Assay type: cell-based
condition details: shift of acetylcholine dose-response curve (Allosteric EC50 shift); α >1 = positive cooperativity
readout label: Cooperativity (alpha factor)
Give the figure only, with no unit attached.

Fill blank: measured Cooperativity (alpha factor) of the compound `CC[C@@H](NC(=O)c1cn(-c2c(F)cccc2F)c2nc(N3C[C@@H](O)[C@H](O)C3)ccc2c1=O)C(F)(F)F` is ____. 30

Fill blank: measured Cooperativity (alpha factor) of the compound `CC[C@@H](NC(=O)c1cn(-c2ccc(F)cc2F)c2nc(N3C[C@@H](O)[C@@H](O)C3)ccc2c1=O)C(F)(F)F` is ____. 25

Fill blank: measured Cooperativity (alpha factor) of the compound `O=C(NC12CC(C1)C2)c1cn(-c2c(F)cc(F)cc2Cl)c2nc(N3C[C@@H](O)[C@H](O)C3)ccc2c1=O` is ____. 18

Fill blank: measured Cooperativity (alpha factor) of the compound CCC(NC(=O)c1cn(-c2c(F)cc(F)cc2F)c2nc(N3C[C@@H](O)[C@H](O)C3)ccc2c1=O)C(F)(F)C(F)(F)F (single isomer, unassigned) [Example 523] is ____. 41

Fill blank: measured Cooperativity (alpha factor) of the compound `CC(C)(CC(F)(F)F)NC(=O)c1cn(-c2c(F)cc(F)cc2F)c2nc(N3C[C@@H](O)CC3=O)ccc2c1=O` is ____. 30

Fill blank: measured Cooperativity (alpha factor) of the compound CC(C)C(NC(=O)c1cn(-c2c(F)cc(F)cc2F)c2nc(N3CCNC3=O)ccc2c1=O)C(F)(F)F (racemic) [Example 537] is ____. 31

Fill blank: measured Cooperativity (alpha factor) of the compound CC(C)(CC(F)(F)F)NC(=O)c1cn(-c2c(F)cc(F)cc2F)c2nc(N3CC(O)C4(CC4)C3)ccc2c1=O (racemic) is ____. 33

Fill blank: measured Cooperativity (alpha factor) of the compound O=C(NC(C1CCC1)C(F)(F)F)c1cn(-c2c(F)cc(F)cc2F)c2nc(N3C[C@@H](O)CC3=O)ccc2c1=O (single isomer, unassigned) [Example 507] is ____. 37

Fill blank: measured Cooperativity (alpha factor) of the compound CC[C@@H](COC(F)(F)F)NC(=O)c1cn(-c2c(F)cc(F)cc2F)c2nc(N3C[C@@H](C)NC3=O)ccc2c1=O (single isomer, unassigned) [Example 455] is ____. 17

Fill blank: measured Cooperativity (alpha factor) of the compound CCC1CCN(c2ccc3c(=O)c(C(=O)N[C@@H](C4CC4)C(F)(F)F)cn(-c4c(F)cc(F)cc4F)c3n2)C(=O)N1 (mixture of isomers) [Example 446] is ____. 21

Fill blank: measured Cooperativity (alpha factor) of the compound CC(C)C(NC(=O)c1cn(-c2c(F)cc(F)cc2F)c2nc(N3C[C@@H](O)[C@H](O)C3)ccc2c1=O)C(F)(F)F (single isomer, unassigned) [Example 554] is ____. 54

Fill blank: measured Cooperativity (alpha factor) of the compound CC[C@H](NC(=O)c1cn(-c2c(F)cc(F)cc2Cl)c2nc(N3CCC(C)C3=O)ccc2c1=O)C(F)(F)F (single isomer, unassigned) [Example 424] is ____. 15

Fill blank: measured Cooperativity (alpha factor) of the compound CC(NC(=O)c1cn(-c2c(F)cc(F)cc2F)c2nc(N3CCNC3=O)ccc2c1=O)C(F)(F)C(F)(F)F (racemic) [Example 541] is ____. 31

Fill blank: measured Cooperativity (alpha factor) of the compound `CC(C)(C)[C@H](NC(=O)c1cn(-c2c(F)cc(F)cc2F)c2nc(N3C[C@@H](O)CC3=O)ccc2c1=O)C(F)(F)F` is ____. 47

Fill blank: measured Cooperativity (alpha factor) of the compound `CC(C)(NC(=O)c1cn(-c2c(F)cc(F)cc2F)c2nc(N3C[C@@H](O)[C@H](O)C3)ccc2c1=O)C(F)F` is ____. 48

Fill blank: measured Cooperativity (alpha factor) of the compound `CC(C)C[C@H](NC(=O)c1cn(-c2c(F)cc(F)cc2F)c2nc(N3CCNC3=O)ccc2c1=O)C(F)(F)F` is ____. 28

Fill blank: measured Cooperativity (alpha factor) of the compound CC[C@H](NC(=O)c1cn(-c2c(F)cc(F)cc2Cl)c2nc(N3C[C@@H](O)CC3=O)ccc2c1=O)C(F)(F)F (single isomer, unassigned) [Example 399] is ____. 11

Fill blank: measured Cooperativity (alpha factor) of the compound CCC(NC(=O)c1cn(-c2c(F)cc(F)cc2F)c2nc(N3C[C@@H](O)CC3=O)ccc2c1=O)C(F)(F)C(F)(F)F (single isomer, unassigned) [Example 520] is ____. 36

====

target or test system: human M2 receptor (Homo sapiens, UniProt P08172)
Sequence (P08172 1-466): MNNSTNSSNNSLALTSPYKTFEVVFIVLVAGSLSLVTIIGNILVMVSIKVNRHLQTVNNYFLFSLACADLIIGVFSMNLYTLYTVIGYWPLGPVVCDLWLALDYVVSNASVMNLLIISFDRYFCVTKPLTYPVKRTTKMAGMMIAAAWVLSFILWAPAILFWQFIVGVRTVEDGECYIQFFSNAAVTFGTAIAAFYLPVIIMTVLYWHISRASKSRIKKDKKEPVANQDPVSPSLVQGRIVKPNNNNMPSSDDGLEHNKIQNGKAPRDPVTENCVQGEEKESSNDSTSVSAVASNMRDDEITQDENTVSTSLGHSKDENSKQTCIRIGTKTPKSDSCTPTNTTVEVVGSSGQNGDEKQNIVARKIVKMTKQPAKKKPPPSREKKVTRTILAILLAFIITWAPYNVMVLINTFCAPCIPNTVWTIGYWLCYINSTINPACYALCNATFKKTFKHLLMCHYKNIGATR
Type: cell-based
condition details: shift of acetylcholine dose-response curve (Allosteric EC50 shift); α >1 = positive cooperativity
readout label: Cooperativity (alpha factor)
Give the figure only, with no unit attached.

Fill blank: measured Cooperativity (alpha factor) of the compound C[C@H](O)CN(C)c1ccc2c(=O)c(C(=O)N[C@@H](C3CC3)C(F)(F)F)cn(-c3c(F)cc(F)cc3F)c2n1 [Example 493] is ____. 14

Fill blank: measured Cooperativity (alpha factor) of the compound CCN1CCCN(c2ccc3c(=O)c(C(=O)N[C@@H](C4CC4)C(F)(F)F)cn(-c4c(F)cc(F)cc4F)c3n2)C1=O [Example 539] is ____. 21

Fill blank: measured Cooperativity (alpha factor) of the compound CC[C@@H](NC(=O)c1cn(-c2c(F)cccc2F)c2nc(N3C[C@@H](O)[C@@H](O)C3)ccc2c1=O)C(F)(F)F [Example 648] is ____. 49

Where do these numbers come from? They come from patent US20190367516A1.
